Collected z-score values appear next to each entry.
# ASSAY_TEXT: P. aeruginosa biofilm formation inhibitors, primary screen, PAO1 strain, BacTiter-Glo luminescence, LB-PBS (AID 1144)
# CONDITION_SET: 12 h, higher = more signal
Active and inactive are the calls of the source. No rule for the calls is given here.
ENDPOINT_LABEL: z-score

MOLECULE	ENDPOINT_LABEL	REPORTED_VALUE
COC(=O)CC=C[C@@H](C)[C@@H](C=NOC[C@H]1O[C@H](c2ccccc2)C=C[C@@H]1Oc1ccc(OC)cc1)NS(=O)(=O)c1ccc(C)cc1	z-score	-0.00695 (inactive)
CCOC(=O)[C@H](CC(C)C)NC(=O)CCC1CC(OC(=O)NCc2cccc3ccccc23)CC2(CCCC(COC(=O)NCc3ccncc3)O2)O1 (stereo partly drawn)	z-score	-0.243 (inactive)
CC(C)=CCCC(C)=CCON=C1C[C@@H](O)[C@@H](O)[C@@H]2[C@@H]3C(=O)N(c4ccc(F)cc4F)C(=O)[C@@H]3CC[C@@H]12	z-score	-0.665 (inactive)
